- target.of.assay: EGFR T790M, L858R (amino acids 669-1011 Accession Number NP_005219.2) (Homo sapiens, UniProt P00533, L858R/T790M)
- Sequence (P00533 669-1011 T790M/L858R): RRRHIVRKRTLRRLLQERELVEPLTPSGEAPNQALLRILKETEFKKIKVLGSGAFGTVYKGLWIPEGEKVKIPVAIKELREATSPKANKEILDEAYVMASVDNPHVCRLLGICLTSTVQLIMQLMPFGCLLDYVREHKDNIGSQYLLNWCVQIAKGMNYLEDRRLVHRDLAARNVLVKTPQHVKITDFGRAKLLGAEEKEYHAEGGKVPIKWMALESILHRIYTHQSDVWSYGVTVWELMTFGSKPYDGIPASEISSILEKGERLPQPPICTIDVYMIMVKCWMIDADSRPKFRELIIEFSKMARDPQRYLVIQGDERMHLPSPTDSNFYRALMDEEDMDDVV
- assay.protocol: KdELECT binding assay (Eurofins Discovery), EGFR T790M, L858R
- measurement.setup: read-out: EGFR DM Kd
Provide the reported Kd of each item.

Incoming: What does the record list as Kd for C=CC(=O)N[C@@H]1CN(c2nc(Nc3cn(CCOCCOCCNC(=O)c4ccc(Nc5ncc6c(n5)N(C5CCCC5)[C@H](CC)C(=O)N6C)c(OC)c4)nc3OC)c3ncn(C)c3n2)C[C@H]1F [Compound I-128] ?
Outgoing: < 50 nM

Incoming: What does the record list as Kd for C=CC(=O)Nc1cc(Nc2nccc(-c3cn(C)c4ccccc34)n2)c(OC)cc1N(C)CCN(C)CCOCCOCCOCCOCCOCCOCCOc1ccc(CNc2cc(N3CCCC[C@H]3CCO)nc3c(CC)cnn23)cn1 [Compound I-133] ?
Outgoing: < 50 nM

Incoming: What does the record list as Kd for C=CC(=O)N[C@@H]1CN(c2nc(Nc3cn(CCCNC(=O)c4ccc(Nc5ncc6c(n5)N(C5CCCC5)[C@H](CC)C(=O)N6C)c(OC)c4)nc3OC)c3ncn(C)c3n2)C[C@H]1F [Compound I-131] ?
Outgoing: < 50 nM

Incoming: What does the record list as Kd for C=CC(=O)Nc1cc(Nc2nccc(-c3cn(C)c4ccccc34)n2)c(OC)cc1N(C)CCN(C)CCCON(C)C(=O)N1N=C(c2cc(F)ccc2F)S[C@@]1(CCCN)c1ccccc1 [Compound I-130] ?
Outgoing: < 50 nM

Incoming: What does the record list as Kd for C=CC(=O)Nc1cc(Nc2nccc(-c3cn(C)c4ccccc34)n2)c(OC)cc1N(C)CCN(C)CCOCCOCCOCCOCCOc1ccc(CNc2cc(N3CCCC[C@H]3CCO)nc3c(CC)cnn23)cn1 [Compound I-132] ?
Outgoing: < 50 nM

Incoming: What does the record list as Kd for C=CC(=O)Nc1cc(Nc2nccc(-c3cn(C)c4ccccc34)n2)c(OC)cc1N(C)CCN(C)CCCN1CCN(CCCNC(=O)c2ccc(Nc3ncc4c(n3)N(C3CCCC3)[C@H](CC)C(=O)N4C)c(OC)c2)CC1 [Compound I-122] ?
Outgoing: < 50 nM

Incoming: What does the record list as Kd for CCC1C(=O)N(C)c2cnc(Nc3ccc(C(=O)NCCOCCOCCOCCOCCN(C)CC=CC(=O)NC4CN(c5nc(Nc6cn(C)nc6OC)c6ncn(C)c6n5)CC4F)cc3OC)nc2N1C1CCCC1 (stereo not shown) [Compound I-126] ?
Outgoing: 50 to 500 nM

Incoming: What does the record list as Kd for C=CC(=O)Nc1cc(Nc2nccc(-c3cn(C)c4ccccc34)n2)c(OC)cc1N(C)CCN(C)CCNC(=O)c1ccc(Nc2ncc3c(n2)N(C2CCCC2)[C@H](CC)C(=O)N3C)c(OC)c1 [Compound I-115] ?
Outgoing: 50 to 500 nM

Incoming: What does the record list as Kd for C=CC(=O)N[C@@H]1CN(c2nc(Nc3cn(CCCCNS(=O)(=O)c4ccc(Nc5ncc(Br)c(Nc6cccc(F)c6C(N)=O)n5)cc4)nc3OC)c3ncn(C)c3n2)CC1F (stereo partly shown) [Compound I-150] ?
Outgoing: < 50 nM

Incoming: What does the record list as Kd for C=CC(=O)N[C@@H]1CN(c2nc(Nc3cn(CCCON(C)C(=O)N4N=C(c5cc(F)ccc5F)S[C@@]4(CCCN)c4ccccc4)nc3OC)c3ncn(C)c3n2)C[C@H]1F [Compound I-135] ?
Outgoing: < 50 nM

Incoming: What does the record list as Kd for C=CC(=O)Nc1cc(Nc2nccc(-c3cn(C)c4ccccc34)n2)c(OC)cc1N(C)CCN(C)CCOCCOCCNS(=O)(=O)c1ccc(Nc2ncc(Br)c(Nc3cccc(F)c3C(N)=O)n2)cc1 [Compound I-33] ?
Outgoing: < 50 nM

Incoming: What does the record list as Kd for C=CC(=O)Nc1cc(Nc2nccc(-c3cn(C)c4ccccc34)n2)c(OC)cc1N(C)CCN(C)CCOCCON(C)C(=O)N1N=C(c2cc(F)ccc2F)S[C@@]1(CCCN)c1ccccc1 [Compound I-127] ?
Outgoing: < 50 nM

Incoming: What does the record list as Kd for CCC1C(=O)N(C)c2cnc(Nc3ccc(C(=O)NCCOCCOCCN(C)CC=CC(=O)NC4CN(c5nc(Nc6cn(C)nc6OC)c6ncn(C)c6n5)CC4F)cc3OC)nc2N1C1CCCC1 (stereo not shown) [Compound I-120] ?
Outgoing: 50 to 500 nM

Incoming: What does the record list as Kd for C=CC(=O)N[C@@H]1CN(c2nc(Nc3cn(CCCN4CCN(CCCNC(=O)c5ccc(Nc6ncc7c(n6)N(C6CCCC6)[C@H](CC)C(=O)N7C)c(OC)c5)CC4)nc3OC)c3ncn(C)c3n2)C[C@H]1F [Compound I-136] ?
Outgoing: < 50 nM

Incoming: What does the record list as Kd for C=CC(=O)Nc1cc(Nc2nccc(-c3cn(C)c4ccccc34)n2)c(OC)cc1N(C)CCN(C)CCOCCOCCOCCOCCOCCOCCOCCOCCON(C)C(=O)N1N=C(c2cc(F)ccc2F)SC1(CCCN)c1ccccc1 (stereo not shown) [Compound I-69] ?
Outgoing: < 50 nM

Incoming: What does the record list as Kd for C=CC(=O)N[C@@H]1CN(c2nc(Nc3cn(CCOc4ccc(CNc5cc(N6CCCC[C@H]6CCO)nc6c(CC)cnn56)cn4)nc3OC)c3ncn(C)c3n2)C[C@H]1F [Compound I-139] ?
Outgoing: < 50 nM

Incoming: What does the record list as Kd for C=CC(=O)N[C@@H]1CN(c2nc(Nc3cn(CCOCCOCCOCCOCCNS(=O)(=O)c4ccc(Nc5ncc(Br)c(Nc6cccc(F)c6C(N)=O)n5)cc4)nc3OC)c3ncn(C)c3n2)C[C@H]1F [Compound I-138] ?
Outgoing: < 50 nM

Incoming: What does the record list as Kd for C=CC(=O)Nc1cc(Nc2nccc(-c3cn(C)c4ccccc34)n2)c(OC)cc1N(C)CCN(C)CCCN1CCN(CCCOc2ccc(CNc3cc(N4CCCC[C@H]4CCO)nc4c(CC)cnn34)cn2)CC1 [Compound I-149] ?
Outgoing: < 50 nM

Incoming: What does the record list as Kd for C=CC(=O)Nc1cc(Nc2nccc(-c3cn(C)c4ccccc34)n2)c(OC)cc1N(C)CCN(C)CCOCCOCCOc1ccc(CNc2cc(N3CCCC[C@H]3CCO)nc3c(CC)cnn23)cn1 [Compound I-141] ?
Outgoing: < 50 nM

###

- target.of.assay: EGFR T790M, L858R (amino acids 669-1011 Accession Number NP_005219.2) (Homo sapiens, UniProt P00533, L858R/T790M)
- assay.protocol: KdELECT binding assay (Eurofins Discovery), EGFR T790M, L858R
- measurement.setup: read-out: EGFR DM Kd
assay.endpoint: Kd

Incoming: What does the record list as Kd for CC[C@@H]1C(=O)N(C)c2cnc(Nc3ccc(C(=O)NCCOCCOCCN(C)C/C=C/C(=O)Nc4cc(Nc5nccc(-c6cn(C)c7ccccc67)n5)c(OC)cc4N(C)CCN(C)C)cc3OC)nc2N1C1CCCC1 [Compound I-117] ?
Outgoing: 50 to 500 nM

Incoming: What does the record list as Kd for C=CC(=O)Nc1cc(Nc2nccc(-c3cn(C)c4ccccc34)n2)c(OC)cc1N(C)CCN(C)CCOCCOCCOCCOCCNS(=O)(=O)c1ccc(Nc2ncc(Br)c(Nc3cccc(F)c3C(N)=O)n2)cc1 [Compound I-32] ?
Outgoing: < 50 nM

Incoming: What does the record list as Kd for CC[C@@H]1C(=O)N(C)c2cnc(Nc3ccc(C(=O)NCCOCCOCCOCCOCCOCCOCCN(C)C/C=C/C(=O)Nc4cc(Nc5nccc(-c6cn(C)c7ccccc67)n5)c(OC)cc4N(C)CCN(C)C)cc3OC)nc2N1C1CCCC1 [Compound I-118] ?
Outgoing: 50 to 500 nM

Incoming: What does the record list as Kd for CC[C@@H]1C(=O)N(C)c2cnc(Nc3ccc(C(=O)NCCOCCOCCOCCOCCOCCOCCN(C)C/C=C/C(=O)NC4CN(c5nc(Nc6cn(C)nc6OC)c6ncn(C)c6n5)C[C@H]4F)cc3OC)nc2N1C1CCCC1 (some centres unmarked) [Compound I-121] ?
Outgoing: 50 to 500 nM

Incoming: What does the record list as Kd for C=CC(=O)N[C@@H]1CN(c2nc(Nc3cn(CCOCCOCCOCCOCCOCCOCCOc4ccc(CNc5cc(N6CCCC[C@@H]6CCO)nc6c(CC)cnn56)cn4)nc3OC)c3ncn(C)c3n2)C[C@H]1F [Compound I-140] ?
Outgoing: < 50 nM

Incoming: What does the record list as Kd for C=CC(=O)Nc1cc(Nc2nccc(-c3cn(C)c4ccccc34)n2)c(OC)cc1N(C)CCN(C)CCOCCOCCOCCOCCOCCOCCNS(=O)(=O)c1ccc(Nc2ncc(Br)c(Nc3cccc(F)c3C(N)=O)n2)cc1 [Compound I-34] ?
Outgoing: < 50 nM

Incoming: What does the record list as Kd for C=CC(=O)N[C@@H]1CN(c2nc(Nc3cn(CCOCCON(C)C(=O)N4N=C(c5cc(F)ccc5F)S[C@@]4(CCCN)c4ccccc4)nc3OC)c3ncn(C)c3n2)C[C@H]1F [Compound I-134] ?
Outgoing: < 50 nM

Incoming: What does the record list as Kd for COc1cc(N(C)CCN(C)C)c(NC(=O)/C=C/CN(C)CCCN2CCN(CCCON(C)C(=O)N3N=C(c4cc(F)ccc4F)S[C@@]3(CCCN)c3ccccc3)CC2)cc1Nc1nccc(-c2cn(C)c3ccccc23)n1 [Compound I-146] ?
Outgoing: < 50 nM
